- System: human breast cancer MDA-MB-231
- Method Summary: MTT antiproliferative assay, MDA-MB-231
- Type: cell-based
- Condition Context: MTT, 48 h, 0–50 μM; read-out: Antiproliferative activity IC50 ± SEM, MDA-MB-231
Property Label: pIC50
One number for each entry, as −log10 of the molar value.

Give its pIC50 value. Item: N.N.[Cl][Pt][Cl] [DDP, cisplatin, reference compound] 5.50

---

- Tested on: human breast cancer MDA-MB-231
- Method Summary: MTT antiproliferative assay, MDA-MB-231
- Assay type: cell-based
- Condition Context: Homo sapiens, MDA-MB-231; MTT, 48 h, 0–50 μM; read-out: Antiproliferative activity IC50 ± SEM, MDA-MB-231
Property Label: pIC50
Numbers only, as −log10 of the molar value.

Answered cases to consult:
| Sample Smiles | Measured On | Quantitative Readout |
| --- | --- | --- |
| Cc1nc(C)c(C(=O)NCCCCCCCCCCCCNC(=O)C=Cc2ccccc2)nc1C | human breast cancer MDA-MB-231 | 5.56 |
| Cc1nc(C)c(C(=O)NCCCCCCCCCCCCNC(=O)C=Cc2ccc(Cl)cc2)nc1C | human breast cancer MDA-MB-231 | 5.62 |
| Cc1nc(C)c(C(=O)NCCCCCCCCCCCCNC(=O)c2cc3ccccc3o2)nc1C | human breast cancer MDA-MB-231 | 5.47 |
| Cc1nc(C)c(C(=O)NCCCCCCCCNC(=O)c2cc3ccccc3o2)nc1C | human breast cancer MDA-MB-231 | 5.21 |
| Cc1nc(C)c(C(=O)NCCCCCCCCCCNC(=O)C=Cc2ccc(Cl)cc2)nc1C | human breast cancer MDA-MB-231 | 5.55 |
| Cc1nc(C)c(C(=O)NCCCCCCCCNC(=O)c2cc3ccccc3s2)nc1C | human breast cancer MDA-MB-231 | 5.47 |

Dear reader, for each entry below, please note its pIC50.
1. Cc1nc(C)c(C(=O)NCCCCCCCCCCCCNC(=O)c2ccc3ccccc3c2)nc1C
2. Cc1nc(C)c(C(=O)NCCCCCCCCCCNC(=O)c2cc3ccccc3s2)nc1C
3. COc1ccc(C=CC(=O)NCCCCCCCCCCCCNC(=O)c2nc(C)c(C)nc2C)cc1OC
4. Cc1nc(C)c(C(=O)NCCCCCCCCCCNC(=O)c2cnc3ccccc3c2)nc1C
5. Cc1nc(C)c(C(=O)NCCCCCCCCNC(=O)c2ccc3ccccc3c2)nc1C
6. COc1ccc(C=CC(=O)NCCCCCCCCCCNC(=O)c2nc(C)c(C)nc2C)cc1OC
7. COc1cc(C=CC(=O)NCCCCCCCCCCCCNC(=O)c2nc(C)c(C)nc2C)cc(OC)c1OC

5.30
5.38
5.62
5.24
5.61
4.89
5.79

---

- Test system: human breast cancer MDA-MB-231
- Method Summary: MTT antiproliferative assay, MDA-MB-231
- Type: cell-based
- Condition Context: Homo sapiens, MDA-MB-231; MTT, 48 h, 0–50 μM; read-out: Antiproliferative activity IC50 ± SEM, MDA-MB-231
Property Label: log10 of IC50 (log10 of the value in µM)
On a log10 scale: recorded IC50, unit µM.

Answered cases to consult:
| Molecule | log10 of IC50 |
| --- | --- |
| Cc1nc(C)c(C(=O)NCCCCCCCCCCCCNC(=O)c2cnc3ccccc3c2)nc1C [12–5] | 0.38 |
| COc1ccc(C=CC(=O)NCCCCCCCCNC(=O)c2nc(C)c(C)nc2C)cc1OC [8–11] | 0.70 |
| Cc1nc(C)c(C(=O)NCCCCCCCCCCCCNC(=O)c2ccc3ncccc3c2)nc1C [12–6] | 0.30 |

Dear reader, for each entry below, please note its log10 of IC50.
1. COc1cc(C=CC(=O)NCCCCCCCCNC(=O)c2nc(C)c(C)nc2C)cc(OC)c1OC [8–12]
2. Cc1nc(C)c(C(=O)NCCCCCCCCCCNC(=O)C=Cc2ccccc2)nc1C [10–1]
3. Cc1nc(C)c(C(=O)NCCCCCCCCCCNC(=O)c2ccc3cc[nH]c3c2)nc1C [10–9]
4. Cc1nc(C)c(C(=O)NCCCCCCCCCCCCNC(=O)c2ccc3cc[nH]c3c2)nc1C [12–9]
5. Cc1nc(C)c(C(=O)NCCCCCCCCCCCCNC(=O)c2cc3ccccc3[nH]2)nc1C [12–4]
6. Cc1nc(C)c(C(=O)NCCCCCCCCCCCCNC(=O)c2cc3ccccc3s2)nc1C [12–3]
7. Cc1nc(C)c(C(=O)NCCCCCCCCNC(=O)c2ccc3cc[nH]c3c2)nc1C [8–9]
8. Cc1nc(C)c(C(=O)NCCCCCCCCNC(=O)c2cnc3ccccc3c2)nc1C [8–5]

1: 1.05; 2: 0.06; 3: 0.78; 4: -0.08; 5: 0.55; 6: 0.33; 7: 0.93; 8: 0.54

Dear reader, for each entry below, please note its log10 of IC50.
1. Cc1nc(C)c(C(=O)NCCCCCCCCNC(=O)C=Cc2ccc(Cl)cc2)nc1C [8–10]
2. Cc1nc(C)c(C(=O)NCCCCCCCCNC(=O)c2ccc3ncccc3c2)nc1C [8–6]
3. Cc1nc(C)c(C(=O)NCCCCCCCCNC(=O)c2cc3ccccc3[nH]2)nc1C [8–4]
4. Cc1nc(C)c(C(=O)NCCCCCCCCCCNC(=O)c2cc3ccccc3o2)nc1C [10–2]
5. Cc1nc(C)c(C(=O)NCCCCCCCCCCNC(=O)c2ccc3ncccc3c2)nc1C [10–6]
6. Cc1nc(C)c(C(=O)NCCCCCCCCCCNC(=O)c2cc3ccccc3[nH]2)nc1C [10–4]

[0.82, 0.01, 0.76, 0.92, 0.89, 1.11]

Dear reader, for each entry below, please note its log10 of IC50.
1. Cc1nc(C)c(C(=O)NCCCCCCCCCCNC(=O)c2ccc3ccccc3c2)nc1C [10–13]
2. COc1cc(C=CC(=O)NCCCCCCCCCCNC(=O)c2nc(C)c(C)nc2C)cc(OC)c1OC [10–12]
3. Cc1nc(C)c(C(=O)NCCCCCCCCNC(=O)C=Cc2ccccc2)nc1C [8–1]

[0.66, 0.53, 0.40]
